system: HCT-15 colon; test: NCI-60 one-dose screen, 48 h (100 = growth as untreated, 0 = no growth, -100 = all killed); conditions: 10 µM
This is part of a sample that, as a whole, favours compounds with a hit. Of some 83,000 tested, about 20% had one in any assay.

{"columns": ["compound", "display unit", "growth"],
 "data": [
  ["Cc1cccc(N(C)c2cccc3c2C(=O)[Se]C3)c1C", "%", 31.6],
  ["C=CC(O)CN1CC1CC (configuration not stated)", "%", 102],
  ["CCCCCCCCCCOc1ccc(C(=O)Oc2ccc(CSP3(=O)OCC4OC(n5ccc(=O)[nH]c5=O)C(F)C4OP(=O)(O)OCC4OC(n5cnc6c(N)ncnc65)C(F)C4O3)cc2)cc1 (configuration not stated)", "%", 105],
  ["S=P(NC1CCCCC1)(N1CC1)N1CC1", "%", 108],
  ["CC(=O)Nc1ccc(C=C2C(=O)NC(=O)NC2=O)cc1", "%", 103],
  ["NS(=O)(=O)c1nc[nH]c1[N+](=O)[O-]", "%", 101],
  ["C[C@]12CC[C@@H]3C4=C(CC[C@H]3[C@@H]1CC[C@@H]2O)CC(=O)CC4", "%", 100],
  ["O=C(CCl)NCNC(=O)CCl", "%", 91.4],
  ["CCN(CC)CCOc1c(C(C)C)cccc1C(C)C", "%", 98.4],
  ["O=C(C(=O)N1CCCC1)c1cn(CCCCCn2cc(C(=O)C(=O)N3CCCC3)c3ccccc32)c2ccccc12", "%", 97.5],
  ["Nc1ccc([N+](=O)[O-])c2c1Oc1ccccc1O2", "%", 87.8],
  ["N#Cc1ncc(/N=C/c2ccc(N(CCCl)CCCl)cc2)s1", "%", 50.6]
]}
